Experiment: Standard protocol for determination of kcat and KM (continuous spectrophotometric assay, Acetyl CoA hydrolysis at 235 nm)
Type: biochemical
Conditions: purified protein; about 23° C.; pH 6.8; 0.2 mM acetyl CoA; glyphosate 0.125 to 10 mM
ATTRIBUTE MEASURED: Km (µM)
Just the number please, in µM, no unit attached.

Incoming: Provide only the value of recorded Km for SEQ ID NO: 398: GAT polypeptide (protein, 6_22H9, GAT polypeptide) MIEVKPINAEDTYEIRHRILRPNQPLEACMYETDLLGGTFHLGGYYRGKLISIASFHQAEHSELEGQKQYQLRGMATLDEYREQKAGSTLIRHAEELLRKKGADLLWCNARTSASGYYKKLGFSEQGEVYDIPPIGPHILMYKKLT
Outgoing: 1100

Incoming: Entry SEQ ID NO: 462: GAT polypeptide (protein, 11_3C3, GAT polypeptide) MIEVKPINAEDTYELRHKILRPNQPIEACMYESDLLRGALHLGGYYRGKLISIASFHQAEHSELQGQKQYQLRGMATLEGYREQKAGSSLIKHAEEILRKRGADLLWCNARTSASGYYKKLGFSEQGEVFDTPPVGPHILMYKRIT needs its Km filled in; supply it.
Outgoing: 220

Incoming: Give reported Km value for SEQ ID NO: 366: GAT polypeptide (protein, 4A_1C2, GAT polypeptide) MIEVKPINAEDTYEIRHRILRPNQPLEACKYETDLLGGTFHLGGYYRGKLISIASFHQAEHSELEGQKQYQLRGMATLEEYREQKAGSTLIRHAEELLRKKGADLLWCNARTSASGYYKKLGFSEQGEVYDIPPIGPHILMYKKLT
Outgoing: 1200
